target_desc: Edg1/3(i3ct) (Homo sapiens, UniProt P21453, DEL241-247/F237N/K239N/K250R/K256R/L235V/L252M/N315S/R231S/R234K/R238H/T230S/T236A)
Construct: DNA encoding the full length Edg 1/3(i3ct) chimera was then produced in a tertiary PCR reaction; expressed in transfected cells
Sequence (P21453 with tags, fused parts or gaps with the stated changes): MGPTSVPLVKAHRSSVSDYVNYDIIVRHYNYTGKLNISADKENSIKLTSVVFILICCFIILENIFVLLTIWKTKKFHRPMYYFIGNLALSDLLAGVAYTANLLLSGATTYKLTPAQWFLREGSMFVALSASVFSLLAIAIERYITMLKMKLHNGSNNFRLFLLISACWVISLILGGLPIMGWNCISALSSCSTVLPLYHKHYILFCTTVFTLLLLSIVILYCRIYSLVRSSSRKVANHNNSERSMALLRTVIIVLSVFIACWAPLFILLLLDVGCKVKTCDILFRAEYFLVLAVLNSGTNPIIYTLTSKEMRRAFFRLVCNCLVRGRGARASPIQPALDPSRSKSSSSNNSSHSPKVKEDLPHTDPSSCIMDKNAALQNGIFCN
protocol_description: Dose response of intracellular calcium mobilization (FLIPR) in HTC4 cells expressing chimeric Edg1/3(i3ct)
Format: cell-based
setup_conditions: HTC4 rat hepatoma cells stably transfected with Edg1/3(i3ct); FIG. 3; read-out: EC50 of intracellular calcium mobilization
pEC50: −log10 of the molar value.
test_readout: pEC50

Req: Specify pEC50 for CCCCCCCCCCCCCCC[C@@H](O)[C@@H](N)COP(=O)(O)O [dihydro S1P, dihydro sphingosine-1-phosphate] and stop.
Resp: ~8.00
